Source listed as patent US20240092922A1.

TARGET SYSTEM: T1, Histidine-tagged human 4-1BB protein (h4-1BB-His) (human, UniProt Q07011 24-186)
T1 construct: not shown: histidine tag
MEASUREMENT NOTES: SPR (Biacore T200), antibody on Protein A chip, h4-1BB-His injected;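 also: dissociation phase followed for 300 s, Kd derived as koff divided by kon from the kinetic fit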
Assign class by kon: not lower than 200000 M⁻¹ s⁻¹ means criterion met; lower than 200000 M⁻¹ s⁻¹ means criterion not met.

>>> assigned_class("5F9-H3K4-IgG4 (antibody, V domains shown, humanized) VH: QVQLKESGPGLVKPSETLSITCTVSGFSLTTYDISWVRQPPGKGLEWLGVIWTGGGTNYNSSFMSRVTISKDNSKNQVSLKLSSVTAADTAIYYCERVDYWGQGTTLTVSS VL: DVVMTQSPLSLPVTLGDPASISCRSSQSLVHSNGNTYLHWYLQRPGQSPKLLIYKVSNRFSGVPDRFSGSGSGTAFTFKISRVEAEDVGVYYCSQNTHVPWTFGGGTKLEIK")
"criterion met"
>>> assigned_class("6A5-H2K2-IgG2 (antibody, V domains shown, humanized) VH: QVQLVQSGAEVKKPGSSVKLSCKASGYTFSSYWINWVRQAPGQGLEWIGNIYPSDSYTNYNQKFKDRATLTVDKSTSTAYMELSSLRSEDTAVYYCTRTWEFYYDSVFDYWGQGTLVTVSS VL: DIQMTQSPSSLSASLGERVTITCKASQDINSYLSWYQQKPGKAPKTLIYRANRLVDGVPSRFSGSGSGQDFTLTISSLQPEDIATYYCLQYDELPPTFGGGTKVEIK")
"criterion met"
>>> assigned_class("70-3F9-mHvKv-IgG2 (antibody, V domains shown) VH: QVQLQQPGAELVRPGASVKLSCKASGYTFTSYWINWVKQRPGQGLEWIGNIFPSDSYTNYNQKFKDRAKLTVDKSSSTAYMQLSSPTSEDSAVYYCTRFGSSGYPDYYTMEYWGQGTSVTVSS VL: DIQMTQSPASLSASVGETVTITCRASGNIDNYLAWYQQKQGKSPQLLVYNAKTLAEGVPSRFSGSGSGTEYSLKINSLQPEDFGSYHCQQYWTIPYTFGGGTKLEIK")
"criterion met"
>>> assigned_class("1C4-H4K4-IgG4 (antibody, V domains shown, humanized) VH: QGQMVQSGAEVKKPGASVKLSCKTSGFTFSSSYINWLRQAPGQSLEWIAWIFAGTGGTYYNQKFTGRAQLTVDTSASTAYMELSSLRSEDTAIYYCARHSPRATLFDFWGQGTTLTVSS VL: EIVLTQSPATLSASPGERVTMSCRASSSVNHMHWYQQRPGFSPRAWIYATSNLASGIPARFSGSGSGTSYSLTISSLEPEDFATYYCQQWSSNPYTFGGGTKLEIK")
"criterion not met"
>>> assigned_class("29-6A5-mHvKv-IgG2 (antibody, V domains shown) VH: QVQLQQPGAELVRPGASVKLSCKASGYTFSSYWINWVKQRPGQGLEWIGNIYPSDSYTNYNQKFKDKATLTVDKSSSTAYMQLSSPTSDDSAVYYCTRTWEFYYDSVFDYWGQGTTLTVSS VL: DIKMTQSPSSMYASLGERVTITCKASQDINSYLSWFQQKPGKSPKTLIYRANRLVDGVPSRFSGSGSGQDYSLTISSLEYEDMGIYYCLQYDELPPTFGGGTKLEIK")
"criterion met"
>>> assigned_class("1C4-H1K2-IgG4 (antibody, V domains shown, humanized) VH: QVQMVQSGAEVKKPGASVKLSCKASGFTFSSSYINWLRQAPGQRLEWMGWIFAGTGGTYYNQKFTGRVTITRDTSASTAYMELSSLRSEDTAIYYCARHSPRATLFDFWGQGTTLTVSS VL: EIVLTQSPATLSLSPGERATLSCRASSSVNHMHWYQQKPGQAPRALIYATSNLASGIPARFSGSGSGTSFTLTISSLEPEDFATYYCQQWSSNPYTFGGGTKLEIK")
"criterion not met"
>>> assigned_class("6A5-H2K4-IgG2 (antibody, V domains shown, humanized) VH: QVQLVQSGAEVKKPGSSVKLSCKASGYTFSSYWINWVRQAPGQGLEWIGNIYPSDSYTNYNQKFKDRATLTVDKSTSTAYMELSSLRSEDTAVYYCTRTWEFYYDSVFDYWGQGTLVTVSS VL: DIQMTQSPSSLSASLGERVTITCKASQDINSYLSWFQQKPGKAPKTLIYRANRLVDGVPSRFSGSGSGQDYTLTISSLQPEDIATYYCLQYDELPPTFGGGTKLEIK")
"criterion met"
>>> assigned_class("45-8E11-mHvKv-IgG2 (antibody, V domains shown) VH: EVQLQQSGTVLARPGASVKMSCKASGYSFTSNWMHWVKQRPGQGLEWIGVIYPGNSDTSYNQKFKGKAKLTAVTSASTAYMELSSLTNEDSAVYYCTRGITTAPEYWGQGTTLTVSS VL: NIVMTQSPKSMSMSVGERVTLSCKASENVGIYVSWYQQKPEQSPKLLIYGASNRYTGVPDRFTGSGSATDFTLTISSVQPEDLADYHCGHTYNYPFTFGSGTKLEIK")
"criterion met"
>>> assigned_class("5F9-H3K3-IgG4 (antibody, V domains shown, humanized) VH: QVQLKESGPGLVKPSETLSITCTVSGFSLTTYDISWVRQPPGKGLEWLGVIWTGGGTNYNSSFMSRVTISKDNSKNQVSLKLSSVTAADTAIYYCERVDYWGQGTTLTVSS VL: DVVMTQSPLSLPVTLGQPASISCRSSQSLVHSNGNTYLHWYQQRPGQSPKLLIYKVSNRFSGVPDRFSGSGSGTAFTFKISRVEAEDVGVYYCSQNTHVPWTFGGGTKLEIK")
"criterion met"
>>> assigned_class("1C4-H3K2-IgG4 (antibody, V domains shown, humanized) VH: QVQMVQSGAEVKKPGASVKLSCKASGFTFSSSYINWLRQAPGQSLEWIGWIFAGTGGTYYNQKFTGRAQITRDTSASTAYMELSSLRSEDTAIYYCARHSPRATLFDFWGQGTTLTVSS VL: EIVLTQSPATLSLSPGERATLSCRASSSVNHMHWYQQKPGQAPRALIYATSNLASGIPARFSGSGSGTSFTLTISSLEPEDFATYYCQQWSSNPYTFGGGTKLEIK")
"criterion not met"
